Entry source: ChEMBL document CHEMBL5143734

system: A549; assay: Cytotoxicity against human A549 cells assessed as reduction in cell viability by CCK-8 assay; type: functional, cell-based
Each item that follows carries a reported IC50.

molecule	target.or.system	IC50, µM
C=C(C)[C@@H]1CC[C@]2(C(=O)OCCCCCn3cncn3)CC[C@]3(C)[C@H](C[C@H]4OC(=O)C[C@@H](O)[C@]5(C)[C@@H]4[C@@]3(C)CC[C@H]5C(=C)C)[C@@H]12	A549	18.7
C=C(C)[C@@H]1CC[C@]2(C(=O)OCCCCCCCCCCBr)CC[C@]3(C)[C@H](C[C@H]4OC(=O)C[C@@H](O)[C@]5(C)[C@@H]4[C@@]3(C)CC[C@H]5C(=C)C)[C@@H]12	A549	22
C=C(C)[C@@H]1CC[C@]2(C(=O)OCCCn3cnc(C)c3)CC[C@]3(C)[C@H](C[C@@H](O)[C@@H]4[C@@]5(C)C(CC(=O)OC)OC(C)(C)C5CC[C@]43C)[C@@H]12 (stereo not given in full)	A549	31.5
C=C(C)[C@@H]1CC[C@]2(C(=O)OCCCn3cncn3)CC[C@]3(C)[C@H](C[C@H]4OC(=O)C[C@@H](O)[C@]5(C)[C@@H]4[C@@]3(C)CC[C@H]5C(=C)C)[C@@H]12	A549	45.2
C=C(C)[C@@H]1CC[C@]2(C(=O)OCCCCCCn3ccnc3C)CC[C@]3(C)[C@H](C[C@@H](O)[C@@H]4[C@@]5(C)C(CC(=O)OC)OC(C)(C)C5CC[C@]43C)[C@@H]12 (stereo not given in full)	A549	25.4
C=C(C)[C@@H]1CC[C@]2(C(=O)OCCCCCCCCCCn3cnc(C)c3)CC[C@]3(C)[C@H](C[C@@H](O)[C@@H]4[C@@]5(C)C(CC(=O)OC)OC(C)(C)C5CC[C@]43C)[C@@H]12 (stereo not given in full)	A549	22.4
C=C(C)[C@@H]1CC[C@]2(C(=O)OCCCCBr)CC[C@]3(C)[C@H](C[C@H]4OC(=O)C[C@@H](O)[C@]5(C)[C@@H]4[C@@]3(C)CC[C@H]5C(=C)C)[C@@H]12	A549	89
C=C(C)[C@@H]1CC[C@]2(C(=O)OCCCCn3cnc(C)c3)CC[C@]3(C)[C@H](C[C@H]4OC(=O)C[C@@H](O)[C@]5(C)[C@@H]4[C@@]3(C)CC[C@H]5C(=C)C)[C@@H]12	A549	20
C=C(C)[C@@H]1CC[C@]2(C(=O)OCCCCCCCCCCn3cc(CCN)c4ccccc43)CC[C@]3(C)[C@H](C[C@@H](O)[C@@H]4[C@@]5(C)C(CC(=O)OC)OC(C)(C)C5CC[C@]43C)[C@@H]12 (stereo not given in full)	A549	7.97
C=C(C)[C@@H]1CC[C@]2(C(=O)OCCCCn3ccnc3)CC[C@]3(C)[C@H](C[C@@H](O)[C@@H]4[C@@]5(C)C(CC(=O)OC)OC(C)(C)C5CC[C@]43C)[C@@H]12 (stereo not given in full)	A549	36.7

* * *

system: A549; experiment: Cytotoxicity against human A549 cells assessed as reduction in cell viability by CCK-8 assay; assay type: functional, cell-based
pIC50: −log10 of the molar value.

molecule	pIC50
C=C(C)[C@@H]1CC[C@]2(C(=O)OCCCCCn3cnc(C)c3)CC[C@]3(C)[C@H](C[C@@H](O)[C@@H]4[C@@]5(C)C(CC(=O)OC)OC(C)(C)C5CC[C@]43C)[C@@H]12 (some centres undefined)	4.55
C=C(C)[C@@H]1CC[C@]2(C(=O)OCCCCCCn3ccnc3CC)CC[C@]3(C)[C@H](C[C@H]4OC(=O)C[C@@H](O)[C@]5(C)[C@@H]4[C@@]3(C)CC[C@H]5C(=C)C)[C@@H]12	4.84
C=C(C)[C@@H]1CC[C@]2(C(=O)OCCCCCCCCCCn3ccnc3)CC[C@]3(C)[C@H](C[C@H]4OC(=O)C[C@@H](O)[C@]5(C)[C@@H]4[C@@]3(C)CC[C@H]5C(=C)C)[C@@H]12	4.76
C=C(C)[C@@H]1CC[C@]2(C(=O)OCCCn3cnc(C)c3)CC[C@]3(C)[C@H](C[C@H]4OC(=O)C[C@@H](O)[C@]5(C)[C@@H]4[C@@]3(C)CC[C@H]5C(=C)C)[C@@H]12	4.40
C=C(C)[C@@H]1CC[C@]2(C(=O)OCCCBr)CC[C@]3(C)[C@H](C[C@@H](O)[C@@H]4[C@@]5(C)C(CC(=O)OC)OC(C)(C)C5CC[C@]43C)[C@@H]12 (some centres undefined)	4.39
C=C(C)[C@@H]1CC[C@]2(C(=O)OCCCCCCn3ccnc3)CC[C@]3(C)[C@H](C[C@H]4OC(=O)C[C@@H](O)[C@]5(C)[C@@H]4[C@@]3(C)CC[C@H]5C(=C)C)[C@@H]12	4.62
C=C(C)[C@@H]1CC[C@]2(C(=O)OCCCCCn3ccnc3C)CC[C@]3(C)[C@H](C[C@@H](O)[C@@H]4[C@@]5(C)C(CC(=O)OC)OC(C)(C)C5CC[C@]43C)[C@@H]12 (some centres undefined)	4.46
C=C(C)[C@@H]1CC[C@]2(C(=O)OCCCCCn3ccnc3CC)CC[C@]3(C)[C@H](C[C@H]4OC(=O)C[C@@H](O)[C@]5(C)[C@@H]4[C@@]3(C)CC[C@H]5C(=C)C)[C@@H]12	4.84
C=C(C)[C@@H]1CC[C@]2(C(=O)OCCCCCCCCCCn3cc(CCN)c4ccccc43)CC[C@]3(C)[C@H](C[C@H]4OC(=O)C[C@@H](O)[C@]5(C)[C@@H]4[C@@]3(C)CC[C@H]5C(=C)C)[C@@H]12	5.18
C=C(C)[C@@H]1CC[C@]2(C(=O)OCCCCCCCCCCBr)CC[C@]3(C)[C@H](C[C@@H](O)[C@@H]4[C@@]5(C)C(CC(=O)OC)OC(C)(C)C5CC[C@]43C)[C@@H]12 (some centres undefined)	4.46
C=C(C)[C@@H]1CC[C@]2(C(=O)OCCCCCCCCCCn3cncn3)CC[C@]3(C)[C@H](C[C@H]4OC(=O)C[C@@H](O)[C@]5(C)[C@@H]4[C@@]3(C)CC[C@H]5C(=C)C)[C@@H]12	4.53
C=C(C)[C@@H]1CC[C@]2(C(=O)OCCCCCCn3cncn3)CC[C@]3(C)[C@H](C[C@H]4OC(=O)C[C@@H](O)[C@]5(C)[C@@H]4[C@@]3(C)CC[C@H]5C(=C)C)[C@@H]12	4.61
C=C(C)[C@@H]1CC[C@]2(C(=O)OCCCCCBr)CC[C@]3(C)[C@H](C[C@H]4OC(=O)C[C@@H](O)[C@]5(C)[C@@H]4[C@@]3(C)CC[C@H]5C(=C)C)[C@@H]12	4.70
C=C(C)[C@@H]1CC[C@]2(C(=O)OCCCn3ccnc3)CC[C@]3(C)[C@H](C[C@H]4OC(=O)C[C@@H](O)[C@]5(C)[C@@H]4[C@@]3(C)CC[C@H]5C(=C)C)[C@@H]12	4.26
C=C(C)[C@@H]1CC[C@]2(C(=O)OCCCCCn3ccnc3CC)CC[C@]3(C)[C@H](C[C@@H](O)[C@@H]4[C@@]5(C)C(CC(=O)OC)OC(C)(C)C5CC[C@]43C)[C@@H]12 (some centres undefined)	4.59
C=C(C)[C@@H]1CC[C@]2(C(=O)OCCCCCCn3cc(CCN)c4ccccc43)CC[C@]3(C)[C@H](C[C@H]4OC(=O)C[C@@H](O)[C@]5(C)[C@@H]4[C@@]3(C)CC[C@H]5C(=C)C)[C@@H]12	5.19
C=C(C)[C@@H]1CC[C@]2(C(=O)OCCCCCCCCCCn3cncn3)CC[C@]3(C)[C@H](C[C@@H](O)[C@@H]4[C@@]5(C)C(CC(=O)OC)OC(C)(C)C5CC[C@]43C)[C@@H]12 (some centres undefined)	4.11
C=C(C)[C@@H]1CC[C@]2(C(=O)OCCCCCn3ccnc3)CC[C@]3(C)[C@H](C[C@@H](O)[C@@H]4[C@@]5(C)C(CC(=O)OC)OC(C)(C)C5CC[C@]43C)[C@@H]12 (some centres undefined)	4.46
C=C(C)[C@@H]1CC[C@]2(C(=O)OCCCCn3cncn3)CC[C@]3(C)[C@H](C[C@@H](O)[C@@H]4[C@@]5(C)C(CC(=O)OC)OC(C)(C)C5CC[C@]43C)[C@@H]12 (some centres undefined)	4.37

* * *

tested on: A549; experiment: Cytotoxicity against human A549 cells assessed as reduction in cell viability by CCK-8 assay; type: functional, cell-based
Each item that follows carries a reported IC50.

compound	unit.tag	prefix.operator	IC50
C=C(C)[C@@H]1CC[C@]2(C(=O)OCCCn3ccnc3)CC[C@]3(C)[C@H](C[C@@H](O)[C@@H]4[C@@]5(C)C(CC(=O)OC)OC(C)(C)C5CC[C@]43C)[C@@H]12 (stereo not given in full)	µM	=	34.8
C=C(C)[C@@H]1CC[C@]2(C(=O)OCCCn3cncn3)CC[C@]3(C)[C@H](C[C@@H](O)[C@@H]4[C@@]5(C)C(CC(=O)OC)OC(C)(C)C5CC[C@]43C)[C@@H]12 (stereo not given in full)	µM	=	31.3
C=C(C)[C@@H]1CC[C@]2(C(=O)OCCCCCCCCCCn3ccnc3CC)CC[C@]3(C)[C@H](C[C@@H](O)[C@@H]4[C@@]5(C)C(CC(=O)OC)OC(C)(C)C5CC[C@]43C)[C@@H]12 (stereo not given in full)	µM	=	18.5
C=C(C)[C@@H]1CC[C@]2(C(=O)OCCCCn3ccnc3CC)CC[C@]3(C)[C@H](C[C@H]4OC(=O)C[C@@H](O)[C@]5(C)[C@@H]4[C@@]3(C)CC[C@H]5C(=C)C)[C@@H]12	µM	=	19.5
C=C(C)[C@@H]1CC[C@]2(C(=O)OCCCCCCn3cncn3)CC[C@]3(C)[C@H](C[C@@H](O)[C@@H]4[C@@]5(C)C(CC(=O)OC)OC(C)(C)C5CC[C@]43C)[C@@H]12 (stereo not given in full)	µM	=	52.7
C=C(C)[C@@H]1CC[C@]2(C(=O)OCCCCCCCCCCn3cnc(C)c3)CC[C@]3(C)[C@H](C[C@H]4OC(=O)C[C@@H](O)[C@]5(C)[C@@H]4[C@@]3(C)CC[C@H]5C(=C)C)[C@@H]12	µM	=	16.7
C=C(C)[C@@H]1CC[C@]2(C(=O)OCCCCCCn3cc(CCN)c4ccccc43)CC[C@]3(C)[C@H](C[C@@H](O)[C@@H]4[C@@]5(C)C(CC(=O)OC)OC(C)(C)C5CC[C@]43C)[C@@H]12 (stereo not given in full)	µM	=	5.97
C=C(C)[C@@H]1CC[C@]2(C(=O)OCCCCn3cc(CCN)c4ccccc43)CC[C@]3(C)[C@H](C[C@H]4OC(=O)C[C@@H](O)[C@]5(C)[C@@H]4[C@@]3(C)CC[C@H]5C(=C)C)[C@@H]12	µM	=	6.72
C=C(C)[C@@H]1CC[C@]2(C(=O)OCCCCCCn3ccnc3C)CC[C@]3(C)[C@H](C[C@H]4OC(=O)C[C@@H](O)[C@]5(C)[C@@H]4[C@@]3(C)CC[C@H]5C(=C)C)[C@@H]12	µM	=	18.9
C=C(C)[C@@H]1CC[C@]2(C(=O)O)CC[C@]3(C)[C@H](C[C@@H](O)[C@@H]4[C@@]5(C)C(CC(=O)OC)OC(C)(C)C5CC[C@]43C)[C@@H]12 (stereo not given in full)	µM	>	200
